- protocol: Inhibition of […]-pretreated amyloid beta (1 to 42) self-aggregation at 20 uM after 48 hrs by thioflavin T based fluorometric assay
Listed here: items and their measured inhibition.
property: inhibition (%)

compound_structure=CN(C)c1ccccc1CNCCCCCCCNc1c2c(nc3ccccc13)CCCC2 property=inhibition uom=% value_observed=30.7
compound_structure=CCN(CC)c1ccccc1CNCCCCCCCCNc1c2c(nc3ccccc13)CCCC2 property=inhibition uom=% value_observed=40.1
compound_structure=Oc1ccccc1CNCCCCCCCCNc1c2c(nc3cc(Cl)ccc13)CCCC2 property=inhibition uom=% value_observed=25.8
compound_structure=CN(C)c1ccccc1CNCCCCCCCCCNc1c2c(nc3ccccc13)CCCC2 property=inhibition uom=% value_observed=39.4
compound_structure=CN(C)c1ccccc1CNCCCCCCCCNc1c2c(nc3ccccc13)CCCC2 property=inhibition uom=% value_observed=38.6

---

- experimental_target: UniProt O42275
- Sequence (O42275 whole entry): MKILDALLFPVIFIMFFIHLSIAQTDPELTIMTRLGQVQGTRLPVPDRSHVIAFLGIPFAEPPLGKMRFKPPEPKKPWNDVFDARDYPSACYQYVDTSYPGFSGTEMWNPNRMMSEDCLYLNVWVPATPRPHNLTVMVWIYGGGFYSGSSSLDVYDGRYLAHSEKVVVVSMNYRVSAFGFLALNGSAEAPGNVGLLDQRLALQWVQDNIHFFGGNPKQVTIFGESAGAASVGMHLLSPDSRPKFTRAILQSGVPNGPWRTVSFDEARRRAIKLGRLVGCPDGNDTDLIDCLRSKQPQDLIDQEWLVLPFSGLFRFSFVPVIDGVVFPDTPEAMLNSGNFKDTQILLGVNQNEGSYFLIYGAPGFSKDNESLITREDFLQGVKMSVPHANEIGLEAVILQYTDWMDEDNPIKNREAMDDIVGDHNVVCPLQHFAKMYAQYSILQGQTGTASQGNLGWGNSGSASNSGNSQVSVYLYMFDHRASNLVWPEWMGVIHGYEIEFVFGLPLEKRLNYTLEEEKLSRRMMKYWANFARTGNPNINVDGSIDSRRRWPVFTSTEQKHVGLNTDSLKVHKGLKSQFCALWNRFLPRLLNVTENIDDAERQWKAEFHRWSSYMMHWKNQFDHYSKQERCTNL
Listed here: items and their measured log10 of IC50.
property: log10 of IC50 (log10 of the value in nM)

compound_structure=CN(C)c1ccccc1CNCCCCCCCNc1c2c(nc3ccccc13)CCCC2 value_observed=0.54
compound_structure=Oc1ccccc1CNCCCCCCNc1c2c(nc3ccccc13)CCCC2 value_observed=1.40
compound_structure=Oc1ccccc1CNCCCCNc1c2c(nc3ccccc13)CCCC2 value_observed=2.40
compound_structure=Oc1ccccc1CNCCCNc1c2c(nc3cc(Cl)ccc13)CCCC2 value_observed=1.64
compound_structure=Oc1ccccc1CNCCCCCCCNc1c2c(nc3cc(Cl)ccc13)CCCC2 value_observed=1.02
compound_structure=CN(C)c1ccccc1CNCCCCCCCCCNc1c2c(nc3ccccc13)CCCC2 value_observed=-0.26
compound_structure=Oc1ccccc1CNCCCCCCCNc1c2c(nc3ccccc13)CCCC2 value_observed=0.98
compound_structure=Oc1ccccc1CNCCCCCCNc1c2c(nc3cc(Cl)ccc13)CCCC2 value_observed=1.63
compound_structure=CN(C)c1ccccc1CNCCCCCCCCNc1c2c(nc3ccccc13)CCCC2 value_observed=0.19
compound_structure=Oc1ccccc1CNCCNc1c2c(nc3ccccc13)CCCC2 value_observed=2.16
compound_structure=Oc1ccccc1CNCCCNc1c2c(nc3ccccc13)CCCC2 value_observed=2.12
compound_structure=Oc1ccccc1CNCCCCNc1c2c(nc3cc(Cl)ccc13)CCCC2 value_observed=2.10
compound_structure=CCN(CC)c1ccccc1CNCCCCCCCCNc1c2c(nc3ccccc13)CCCC2 value_observed=0.13
compound_structure=Oc1ccccc1CNCCCCCCCCNc1c2c(nc3ccccc13)CCCC2 value_observed=0.79
compound_structure=c1ccc(CNCCCCCCCCNc2c3c(nc4ccccc24)CCCC3)nc1 value_observed=0.47
compound_structure=Oc1ccccc1CNCCCCCCCCCNc1c2c(nc3ccccc13)CCCC2 value_observed=0.88
compound_structure=Oc1ccccc1CNCCNc1c2c(nc3cc(Cl)ccc13)CCCC2 value_observed=1.35
compound_structure=Oc1ccccc1CNCCCCCCCCNc1c2c(nc3cc(Cl)ccc13)CCCC2 value_observed=0.83
compound_structure=Oc1ccccc1CNCCCCCCCCCNc1c2c(nc3cc(Cl)ccc13)CCCC2 value_observed=0.89
